Biological target: human μ-opioid receptors (Homo sapiens, UniProt P35372)
Sequence (P35372 whole entry): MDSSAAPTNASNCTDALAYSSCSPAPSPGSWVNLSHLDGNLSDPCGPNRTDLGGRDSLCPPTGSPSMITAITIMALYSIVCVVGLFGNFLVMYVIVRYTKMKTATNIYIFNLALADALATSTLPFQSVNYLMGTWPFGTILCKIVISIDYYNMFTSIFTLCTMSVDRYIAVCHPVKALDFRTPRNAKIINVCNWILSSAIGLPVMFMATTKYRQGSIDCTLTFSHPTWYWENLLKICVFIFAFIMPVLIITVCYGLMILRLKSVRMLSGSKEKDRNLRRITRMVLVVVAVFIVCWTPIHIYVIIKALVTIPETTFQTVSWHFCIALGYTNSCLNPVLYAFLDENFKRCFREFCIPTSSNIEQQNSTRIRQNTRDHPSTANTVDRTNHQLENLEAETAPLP
Observable: pKi
pKi here: minus log base 10 of the concentration, concentration in moles per litre.

Below are worked cases with known answers.
1) NC(=O)/C(=N\OCC(=O)O)c1nc2ccccc2n([C@H]2C[C@H]3CCC[C@@H](C2)N3C2CC3CCCC(C3)C2)c1=O (stereo partly drawn) [Compound 40] = 5.57
2) CON=C(CCC(=O)O)c1nc2ccccc2n([C@H]2C[C@H]3CC[C@@H](C2)N3C2CC3CCCC(C3)C2)c1=O (stereo partly drawn) [Compound 14] = 5.64

Task item: Give the reported pKi for CON=C(CCC(=O)O)c1nc2ccccc2n([C@H]2C[C@H]3COC[C@@H](C2)N3C2CC3CCCCC(C3)C2)c1=O (stereo partly drawn) [Compound 48] (system: human μ-opioid receptors (Homo sapiens, UniProt P35372)).
Reply: 4.81

###

pIC50: −log10 of the molar value.
A set of compounds tested on UniProt P11712, with measured pIC50:

As a guide, the following entries are already answered.
1) CNC(=O)CCC(=NOCC(=O)O)c1nc2ccccc2n([C@H]2C[C@H]3CCC[C@@H](C2)N3C2CC3CCCCC(C3)C2)c1=O (stereo partly drawn) = < 4.70
2) NC(=O)CO/N=C(\CCC(=O)O)c1nc2ccccc2n([C@H]2C[C@H]3CCC[C@@H](C2)N3C2CC3CCCC(C3)C2)c1=O (stereo partly drawn) = < 4.70

# evaluate next
Task item: Would you kindly share the measured pIC50 for CN(C)C(=O)C(=NOCC(=O)O)c1nc2ccccc2n([C@H]2C[C@H]3CCC[C@@H](C2)N3C2CC3CCCC(C3)C2)c1=O (stereo partly drawn) ?
Reply: < 4.70

###

Target: CYP2D6 (Homo sapiens)
Sequence (P10635 whole entry): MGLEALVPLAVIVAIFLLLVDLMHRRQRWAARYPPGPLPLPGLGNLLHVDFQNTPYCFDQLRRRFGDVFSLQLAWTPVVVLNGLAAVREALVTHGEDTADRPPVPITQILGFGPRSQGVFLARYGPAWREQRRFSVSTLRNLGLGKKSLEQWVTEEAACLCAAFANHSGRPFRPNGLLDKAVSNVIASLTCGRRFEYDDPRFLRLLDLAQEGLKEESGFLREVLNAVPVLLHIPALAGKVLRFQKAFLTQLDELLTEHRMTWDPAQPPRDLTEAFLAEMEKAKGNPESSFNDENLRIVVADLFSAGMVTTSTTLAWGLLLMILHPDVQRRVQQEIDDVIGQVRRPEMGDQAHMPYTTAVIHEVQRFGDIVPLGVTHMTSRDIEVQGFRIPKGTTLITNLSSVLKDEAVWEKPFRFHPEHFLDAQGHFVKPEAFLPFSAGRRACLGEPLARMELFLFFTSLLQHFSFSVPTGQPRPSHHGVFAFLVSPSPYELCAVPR
pIC50: −log10 of the molar value.
Observable: pIC50

Check out these entries, answers already filled in.
1) CNC(=O)CCC(=NOCC(=O)O)c1nc2ccccc2n([C@H]2C[C@H]3CCC[C@@H](C2)N3C2CC3CCCC(C3)C2)c1=O (stereo partly drawn) [Compound 42] = < 4.70
2) CON=C(CCC(=O)O)c1nc2ccccc2n([C@H]2C[C@H]3CC[C@@H](C2)N3C2CC3CCCCC(C3)C2)c1=O (stereo partly drawn) [Compound 12] = < 4.70

As a next step, examine the compound that follows.
Task item: Requested read-out: pIC50. Entry: CC(=NOCC(=O)O)c1nc2ccccc2n(C2CC3CCC(C2)N3C2CC3CCCCC(C3)C2)c1=O (stereo not drawn) [Compound 22]
Reply: < 4.70

###

Molecular target: CYP1A2 (Homo sapiens)
Sequence (P05177 1-516): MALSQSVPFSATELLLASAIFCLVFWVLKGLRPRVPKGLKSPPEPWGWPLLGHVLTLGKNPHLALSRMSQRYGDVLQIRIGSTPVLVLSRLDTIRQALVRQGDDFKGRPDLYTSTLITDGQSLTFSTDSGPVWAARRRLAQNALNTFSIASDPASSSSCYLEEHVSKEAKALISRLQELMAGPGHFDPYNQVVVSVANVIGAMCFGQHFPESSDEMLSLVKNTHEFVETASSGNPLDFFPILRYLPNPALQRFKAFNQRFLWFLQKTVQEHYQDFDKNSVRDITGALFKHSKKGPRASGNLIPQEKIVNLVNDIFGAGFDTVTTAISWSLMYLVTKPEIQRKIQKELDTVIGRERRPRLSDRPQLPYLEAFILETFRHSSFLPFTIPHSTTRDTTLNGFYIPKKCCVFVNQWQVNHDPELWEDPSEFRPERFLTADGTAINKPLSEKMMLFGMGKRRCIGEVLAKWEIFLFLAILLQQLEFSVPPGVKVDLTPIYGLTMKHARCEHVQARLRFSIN
pIC50: −log10 of the molar value.
Documented pIC50 across a set of compounds

Task item: Recorded pIC50 for NC(=O)CO/N=C(\C(=O)O)c1nc2ccccc2n([C@H]2C[C@H]3CCC[C@@H](C2)N3C2CC3CCCC(C3)C2)c1=O (stereo partly drawn) [Compound 38] , please?
Reply: < 4.70

Task item: What pIC50 value was documented for this compound, N#CC(=NOCC(=O)O)c1nc2ccccc2n([C@H]2C[C@H]3CCC[C@@H](C2)N3C2CC3CCCC(C3)C2)c1=O (stereo partly drawn) [Compound 65] ?
Reply: < 4.70

Task item: pIC50 for NC(=O)C(=NOCC(=O)O)c1nc2ccccc2n([C@H]2C[C@H]3CCC[C@@H](C2)N3C2CC3CCCCC(C3)C2)c1=O (stereo partly drawn) [Compound 55] ?
Reply: < 4.70

###

// values below are IC50; system is CYP2C9 (Homo sapiens)
Sequence (P11712 whole entry): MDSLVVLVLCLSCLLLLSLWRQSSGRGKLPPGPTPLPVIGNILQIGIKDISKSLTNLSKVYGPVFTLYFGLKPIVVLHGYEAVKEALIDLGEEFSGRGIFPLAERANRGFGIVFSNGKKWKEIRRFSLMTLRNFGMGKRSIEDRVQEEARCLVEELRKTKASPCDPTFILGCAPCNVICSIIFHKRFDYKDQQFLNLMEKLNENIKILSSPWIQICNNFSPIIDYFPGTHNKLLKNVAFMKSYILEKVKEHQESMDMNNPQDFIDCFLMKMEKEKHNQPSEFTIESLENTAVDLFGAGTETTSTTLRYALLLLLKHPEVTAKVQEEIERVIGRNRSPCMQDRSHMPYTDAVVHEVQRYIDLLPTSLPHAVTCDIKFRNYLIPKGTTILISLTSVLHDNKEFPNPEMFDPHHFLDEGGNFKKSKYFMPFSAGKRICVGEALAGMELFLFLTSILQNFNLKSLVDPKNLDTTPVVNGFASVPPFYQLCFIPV

Task item: Recorded IC50 of CCN(CC)CCO/N=C(\CCC(=O)O)c1nc2ccccc2n(C2C[C@H]3CCC[C@@H](C2)N3C2C[C@@H]3C[C@@H](C)C[C@H](C2)C3)c1=O (stereo partly drawn) , please.
Reply: > 20 µM

Task item: I would be grateful if you could share the reported IC50 for CCO/N=C(\CCC(=O)O)c1nc2ccccc2n([C@H]2C[C@H]3CCC[C@@H](C2)N3C2CC3CCCC(C3)C2)c1=O (stereo partly drawn) .
Reply: > 20 µM

Task item: Entry under review: CON=C(CCC(=O)O)c1nc2ccccc2n([C@H]2C[C@H]3CC[C@@H](C2)N3C2CC3CCCC(C3)C2)c1=O (stereo partly drawn) . Reported IC50?
Reply: > 20 µM

###

// CYP2C9 (Homo sapiens) IC50 records

Worked examples follow.
1. CON=C(CCC(=O)O)c1nc2ccccc2n([C@H]2C[C@H]3CC[C@@H](C2)N3C2CC3CCCCC(C3)C2)c1=O (stereo partly drawn) = > 20 µM
2. NC(=O)CO/N=C(\C(N)=O)c1nc2ccccc2n([C@H]2C[C@H]3CCC[C@@H](C2)N3C2CC3CCCCC(C3)C2)c1=O (stereo partly drawn) = > 20 µM

Okay, now this molecule:
Task item: For CYP2C9 (Homo sapiens), provide IC50 of CON=C(CCC(=O)O)c1nc2ccccc2n([C@H]2C[C@H]3COC[C@@H](C2)N3C2CC3CCCCC(C3)C2)c1=O (stereo partly drawn) please.
Reply: > 20 µM

###

Parameter pIC50: see the listing below.
Biological target: CYP3A4 (Homo sapiens)
pIC50: −log10 of the molar value.

1. CN(C)C(=O)CON=C(C(=O)O)c1nc2ccccc2n([C@H]2C[C@H]3CCC[C@@H](C2)N3C2CC3CCCC(C3)C2)c1=O (stereo partly drawn) = < 4.70
2. CC1CC2CC(C1)CC(N1[C@@H]3CCC[C@H]1C[C@@H](n1c(=O)c(/C(CCC(=O)O)=N/OCCCN(C)C)nc4ccccc41)C3)C2 (stereo partly drawn) = 5.21
3. CO/N=C(\CCC(=O)O)c1nc2ccccc2n([C@H]2C[C@H]3CCC[C@@H](C2)N3C2CCCCCCCCC2)c1=O = < 4.70
4. C/C(=N\OCC(=O)O)c1nc2ccccc2n([C@H]2C[C@H]3CCC[C@@H](C2)N3C2CCCCCCCCC2)c1=O = < 4.70
5. NC(=O)CO/N=C(\C(=O)O)c1nc2ccccc2n([C@H]2C[C@H]3CC[C@@H](C2)N3C2CC3CCCCC(C3)C2)c1=O (stereo partly drawn) = < 4.70

Task item: Short answer please: pIC50, CYP3A4 (Homo sapiens), entry CC(C)ON=C(C(=O)O)c1nc2ccccc2n([C@H]2C[C@H]3CCC[C@@H](C2)N3C2CC3CCCC(C3)C2)c1=O (stereo partly drawn)
Reply: < 4.70

###

Endpoint: pIC50. System: CYP3A4 (Homo sapiens, UniProt P08684). Items follow.
Sequence (P08684 whole entry): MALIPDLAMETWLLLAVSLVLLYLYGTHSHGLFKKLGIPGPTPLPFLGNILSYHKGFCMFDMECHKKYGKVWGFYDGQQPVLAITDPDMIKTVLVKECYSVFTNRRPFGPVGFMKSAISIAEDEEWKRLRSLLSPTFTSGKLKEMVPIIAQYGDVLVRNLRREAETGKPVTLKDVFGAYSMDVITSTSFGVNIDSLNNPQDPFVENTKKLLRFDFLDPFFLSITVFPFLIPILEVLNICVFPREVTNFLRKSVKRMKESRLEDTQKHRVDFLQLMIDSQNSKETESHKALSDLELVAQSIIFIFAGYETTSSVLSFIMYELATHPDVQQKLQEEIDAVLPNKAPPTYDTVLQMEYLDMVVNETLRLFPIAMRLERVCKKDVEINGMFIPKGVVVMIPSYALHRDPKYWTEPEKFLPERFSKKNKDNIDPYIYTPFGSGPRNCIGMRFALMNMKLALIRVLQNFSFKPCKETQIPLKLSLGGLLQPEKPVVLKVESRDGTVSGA
pIC50: −log10 of the molar value.

1. CO/N=C(\C(=O)O)c1nc2ccccc2n([C@H]2C[C@H]3CC[C@@H](C2)N3C2CC3CCCCC(C3)C2)c1=O (stereo partly drawn) = < 4.70
2. CC(C)ON=C(C(=O)O)c1nc2ccccc2n([C@H]2C[C@H]3CC[C@@H](C2)N3C2CC3CCCCC(C3)C2)c1=O (stereo partly drawn) = < 4.70

Switching to the query record.
Task item: Please look up its pIC50: CNC(=O)C(=NOCC(=O)O)c1nc2ccccc2n([C@H]2C[C@H]3CCC[C@@H](C2)N3C2CC3CCCCC(C3)C2)c1=O (stereo partly drawn)
Reply: < 4.70

###

Target: CYP3A4 (Homo sapiens)
pIC50: −log10 of the molar value.
Observable: pIC50

1) CC(C)C(O/N=C(\C(=O)O)c1nc2ccccc2n([C@H]2C[C@H]3CCC[C@@H](C2)N3C2CC3CCCC(C3)C2)c1=O)C(N)=O (stereo partly drawn) [Compound 53] = < 4.70
2) CCN(CC)CCO/N=C(\CCC(=O)O)c1nc2ccccc2n(C2C[C@H]3CCC[C@@H](C2)N3C2C[C@@H]3C[C@@H](C)C[C@H](C2)C3)c1=O (stereo partly drawn) [Compound 27] = 5.05

Now, please, on to the next compound.
Task item: Can you look up the measured pIC50 of CCO/N=C(\CCC(=O)O)c1nc2ccccc2n([C@H]2C[C@H]3CCC[C@@H](C2)N3C2CC3CC(CC)CC(C3)C2)c1=O (stereo partly drawn) [Compound 26] for me?
Reply: < 4.70
